Measured ddG of mutation (higher = less stable), listed per entry for reference.
B1: Ribonuclease, P00648 (parent)
chain: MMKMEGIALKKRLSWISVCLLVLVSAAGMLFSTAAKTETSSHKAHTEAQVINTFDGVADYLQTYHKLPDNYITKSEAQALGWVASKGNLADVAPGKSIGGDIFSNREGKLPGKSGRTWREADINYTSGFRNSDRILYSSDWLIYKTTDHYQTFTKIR

Variants of: B1
Conditions: Bacillus amyloliquefaciens; pH 6.3; 54.1 °C; Thermal; DSC; MES 50 mM; structure 1BNI; whole UniProt chain shown
Return type: number; implicit unit kcal/mol.

Some entries whose results are on file:
mutations=G99A test_result=5.3
mutations=G100A test_result=3.4
mutations=G100V test_result=7.8

INPUT: # query: ddG of mutation (higher = less stable) of entry "G99V"
OUTPUT: 8.4

Hey, just so you know, these numbers are from FireProtDB (doi:10.1006/jmbi.1999.2569).
